# Tested on: 883617-216-R-J1-PDC complex spheroids, growth, % test/control;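 also: exposure lasted 7 days after dosing on day 3 of spheroid growth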
# Protocol Description: Anticancer human tumor 883617-216-R-J1-PDC patient-derived bladder carcinoma cell line growth inhibition [AhR]
# Experimental Parameters: second compound 1 µM; first compound 0.316 µM; stronger effect = lower value
Readout Type: viability, T/C

// solved cases for viability, T/C follow
State the recorded viability, T/C for this entry: Nc1ccn(C2OC(CO)C(O)C2(F)F)c(=O)n1 (stereo unspecified) + Cc1ccccc1N=Nc1ccc(NC(=O)c2ccnn2C)c(C)c1 31.5%

State the recorded viability, T/C for this entry: COc1ccc([C@@H](O)c2cc(-c3ncnc4cc(N5CCOCC5)ccc34)c(F)cc2Cl)nn1 + Cc1ccccc1N=Nc1ccc(NC(=O)c2ccnn2C)c(C)c1 72.8%

State the recorded viability, T/C for this entry: CC(C)c1c(-c2ccccc2)nc2c(C#N)c[nH]n2c1=O + Cc1ccccc1N=Nc1ccc(NC(=O)c2ccnn2C)c(C)c1 87.7%

State the recorded viability, T/C for this entry: O=C(c1cc(Cc2n[nH]c(=O)c3ccccc23)ccc1F)N1CCN(C(=O)C2CC2)CC1 + CC(CO)NC(=O)c1cc(-c2ccc(Cl)cc2)nn(-c2cnn(C)c2)c1=O 111%

State the recorded viability, T/C for this entry: CC1COCCN1c1cc(C2(S(C)(=N)=O)CC2)nc(-c2ccnc3[nH]ccc23)n1 (stereo unspecified) + Cc1ccccc1N=Nc1ccc(NC(=O)c2ccnn2C)c(C)c1 82.4%

New cases:
State the recorded viability, T/C for this entry: CC1COCCN1c1cc(C2(S(C)(=N)=O)CC2)nc(-c2ccnc3[nH]ccc23)n1 (stereo unspecified) + Cc1cncc(-c2nc(NCCc3c[nH]c4ccccc34)c3ncn(C(C)C)c3n2)c1 100%

Origin of the recorded values: PubChem BioAssay AID1919004
